TARGET_UNDER_TEST: Aldehyde dehydrogenase 1A1 (Homo sapiens) (UniProt P00352)
Sequence (P00352 whole entry, looked up): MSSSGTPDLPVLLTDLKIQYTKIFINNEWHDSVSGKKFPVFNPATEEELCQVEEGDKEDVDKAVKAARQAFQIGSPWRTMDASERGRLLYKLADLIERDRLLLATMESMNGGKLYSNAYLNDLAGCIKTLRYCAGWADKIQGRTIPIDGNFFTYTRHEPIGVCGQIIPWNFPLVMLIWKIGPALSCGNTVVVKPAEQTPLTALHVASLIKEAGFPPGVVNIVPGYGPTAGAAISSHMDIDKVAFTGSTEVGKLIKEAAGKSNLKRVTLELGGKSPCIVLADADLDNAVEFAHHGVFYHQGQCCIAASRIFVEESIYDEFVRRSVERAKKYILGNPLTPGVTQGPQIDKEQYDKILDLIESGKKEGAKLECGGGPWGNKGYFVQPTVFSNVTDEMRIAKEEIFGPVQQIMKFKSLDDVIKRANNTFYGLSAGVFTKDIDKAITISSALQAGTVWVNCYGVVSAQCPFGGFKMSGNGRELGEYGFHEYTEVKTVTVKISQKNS
ASSAY_NAME: qHTS Assay for Inhibitors of Aldehyde Dehydrogenase 1 (ALDH1A1)
EXPERIMENTAL_CONTEXT: Purified ALDH1A1, NADH fluorescence, propionaldehyde substrate; series mostly up to 75.3 µM
Among all 220,000 compounds or so, about 16,000 (7.3%) were called active. Inconclusive results (about 25%) are left out. Calls follow the shape of the dose curve; as a rule, active = well fitted inhibition curve with a large enough effect (not every such curve was filed as active); inconclusive = small, poorly fitted or top-dose-only effect, or another doubt; inactive = no such curve, though single readings can be large or run the other way. For the sample, actives were picked, then their nearest neighbours and some compounds at random.
Entry note: the call must match one of y for active, n for inactive

Here are 5 compounds together with their reported answers.
COMPOUND	TARGET_UNDER_TEST	LABEL_VALUE
COc1cccc(CNC(=O)CCC2CCCN(C(=O)c3ccoc3C)C2)c1 (stereo not given)	Aldehyde dehydrogenase 1A1 (Homo sapiens) (UniProt P00352)	y
CC(=O)N1CC(C)c2scc(C)[n+]2-c2ccccc21 (stereo not given)	Aldehyde dehydrogenase 1A1 (Homo sapiens) (UniProt P00352)	n
COc1ccc(NC(=O)N2CCC(Cc3ccccc3)CC2)cc1	Aldehyde dehydrogenase 1A1 (Homo sapiens) (UniProt P00352)	n
O=C(CSc1nc(-c2ccco2)cc(C(F)(F)F)n1)NCc1cccs1	Aldehyde dehydrogenase 1A1 (Homo sapiens) (UniProt P00352)	n
O=C(NCc1ccc2c(c1)OCO2)C1CCCN(S(=O)(=O)c2cccs2)C1 (stereo not given)	Aldehyde dehydrogenase 1A1 (Homo sapiens) (UniProt P00352)	n

Lookup: Called result for CC(C)(C)NC(=O)CSC(=Nc1ccccc1F)NC#N
Found: y

---

TARGET_UNDER_TEST: Aldehyde dehydrogenase 1A1 (Homo sapiens)
ASSAY_NAME: qHTS Assay for Inhibitors of Aldehyde Dehydrogenase 1 (ALDH1A1)
EXPERIMENTAL_CONTEXT: Purified ALDH1A1, NADH fluorescence, propionaldehyde substrate; series mostly up to 75.3 µM
Screen size: about 220,000 compounds; about 16,000 (7.3%) were called active. About 25% were inconclusive and are not listed. Shown is part of a subset that was picked to be rich in actives.
REPORTED_METRIC: outcome

Here is how some molecules turned out for outcome.
MOLECULE	TARGET_UNDER_TEST	outcome
O=C(COC(=O)CNS(=O)(=O)c1ccccc1)NC12CC3CC(CC(C3)C1)C2	Aldehyde dehydrogenase 1A1 (Homo sapiens)	inactive
COC(=O)c1ccc(N(CC(=O)NC2CCCC2)C(=O)CNC(=O)c2ccco2)cc1	Aldehyde dehydrogenase 1A1 (Homo sapiens)	inactive
Cc1nc2cc(NC(=O)NC3CC3)ccc2n1C	Aldehyde dehydrogenase 1A1 (Homo sapiens)	inactive
CCN(CC)CCNC(=O)c1ccc(NC(=O)c2c(F)cccc2Cl)cc1	Aldehyde dehydrogenase 1A1 (Homo sapiens)	inactive
O=C1C=C(c2ccccc2)CCC1	Aldehyde dehydrogenase 1A1 (Homo sapiens)	inactive
CN1CCN(CCC(=O)N/N=C/C=C2\N(C)c3ccccc3C2(C)C)CC1	Aldehyde dehydrogenase 1A1 (Homo sapiens)	inactive
COCCN(CCOC)S(=O)(=O)c1ccc(/C(O)=C(\C#N)c2nc3ccccc3[nH]2)cc1	Aldehyde dehydrogenase 1A1 (Homo sapiens)	inactive
CC(=O)Nc1ccc(S(=O)(=O)Oc2ccc(/C=N/N=C3/NC(=O)C(CC(=O)O)S3)cc2)cc1 (stereo not drawn)	Aldehyde dehydrogenase 1A1 (Homo sapiens)	inactive
COc1ccc(-n2nc3c(c2NC(=O)c2ccc(N4C(=O)CCC4=O)cc2)CSC3)cc1	Aldehyde dehydrogenase 1A1 (Homo sapiens)	inactive
O=C(CN1C(=O)CC(c2ccccc2)S(=O)(=O)c2ccccc21)NC1CCCC1 (stereo not drawn)	Aldehyde dehydrogenase 1A1 (Homo sapiens)	inactive

// batch mode: one outcome value per listed entry
1. COc1ccc(NC(=O)CSc2nc(C)cs2)cc1
2. O=C(CSc1nnc(-c2ccccc2)o1)N1CCOCC1
3. COc1ccc(N2CCN(CCCNC(=O)C3CCN(S(=O)(=O)N4CCOCC4)CC3)CC2)cc1
4. CCCC[C@@H]1C[C@H]1C(NC(=O)c1ccc(-c2ccccc2)cc1)c1ccc(-c2ccccc2)cc1 (stereo partly drawn)

Found:
1: inactive; 2: inactive; 3: inactive; 4: inactive

// batch mode: one outcome value per listed entry
1. NC(=O)COC(=O)/C=C/c1ccc2ccccc2n1
2. O=C(Cn1cnc2c(nnn2-c2ccccc2)c1=O)N1CCC(Cc2ccccc2)CC1
3. c1ccc2c(c1)OCCOCCOCCO2

Found:
1: inactive; 2: inactive; 3: inactive

// batch mode: one outcome value per listed entry
1. Oc1ccc(-c2nncn2-c2ccccc2)cc1
2. CCOc1ccc(NC(=O)CSc2ncnc3c2sc2ccccc23)cc1
3. COc1ccc(NC(=O)C(C)SCc2ccccc2)cc1 (stereo not drawn)

Found:
1: inactive; 2: inactive; 3: inactive

// batch mode: one outcome value per listed entry
1. Cc1[nH]c2ccccc2c1-c1ccc(Cl)nn1
2. N#C/C(=C1/CCCN1)c1ccccn1

Found:
1. inactive
2. inactive

Lookup: Please indicate outcome recorded for Cc1ccc(S(=O)(=O)NC(=O)Nc2nc(-c3ccc(F)c(F)c3)cs2)cc1
Found: inactive
